Procedure text: qHTS assay to identify small molecule antagonists of the constitutive androstane receptor (CAR) signaling pathway - cell viability counter screen (AID 1224837); further: nearly all actives have a fitted effect of over 45% in size
Experimental conditions: HepG2-CYP2B6-hCAR viability, CellTiter-Fluor, 23 h, co-treated with 50 nM CITCO; series mostly up to 92.4 µM
Inconclusive results are not listed. Calls of active or inactive are those of the source. The call rests on the fitted dose curve; in most records, active means well fitted cell-killing curve with a large enough effect in the repeat runs; inconclusive means weak or mixed curves, or effect the other way; inactive means flat fitted curve, though single readings scatter.
Select the correct class. Options are active, inactive and nothing else.

# example entries with known answers
| Molecule | Class |
| --- | --- |
| O=[N+]([O-])c1cc(C(F)(F)F)c(Cl)c([N+](=O)[O-])c1Nc1ncc(C(F)(F)F)cc1Cl | active |
| CCCCn1cc[n+](C)c1 (tested in a mixture with another compound) | inactive |
| Clc1ccc(C(c2ccc(Cl)cc2)C(Cl)Cl)cc1 | inactive |
| O.O.O.O.O.O.O=S(=O)([O-])[O-].[Ni+2] | inactive |

Next, consider the following molecule.
Could you please tell me the result logged for CNC(=O)O/N=C(\C)C(C)S(C)(=O)=O (stereo not given) in this assay?
inactive
